TEST NAME: in vivo
EXPERIMENTAL SETUP: mouse, oral route, read-out: therapeutic index (lethal dose to effective dose)
REPORTED METRIC: selectivity ratio

Supply recorded selectivity ratio for O=C1NC(c2ccccc2)N(CCN2CCN(c3ccccc3)CC2)c2ccccc21 (stereo not shown) here.
> 300

* * *

TEST NAME: in vivo
EXPERIMENTAL SETUP: mouse, mice, all routes tested, read-out: acute toxicity
REPORTED METRIC: LD50

Let me know recorded LD50 for O=C1NC(c2ccccc2)N(CCN2CCN(c3ccccc3)CC2)c2ccccc21 (stereo not shown) , thanks.
> 1000 mg/kg

* * *

TEST NAME: in vivo
EXPERIMENTAL SETUP: iv, Mouse i.v., solution (5mg/ml) in distilled water, read-out: LD50 (48 hr)
REPORTED METRIC: LD50 at 48 h
Entry format: amount then unit.

For NC(=O)c1ccccc1NCCN1CCN(c2ccccc2)CC1 [Example 730-372A] , write its LD50 at 48 h.
50 mg/kg

* * *

Hi there, I'd appreciate the recorded LD50 at 48 h for every entry that follows.
TEST NAME: acute toxicity, cat
EXPERIMENTAL SETUP: in vivo, ip; Cat i.p.; preliminary result (740-222)

State, in one line, measured LD50 at 48 h of NC(=O)c1ccccc1NCCN1CCN(c2ccccc2)CC1 [Example 730-372A]
> 1000 mg/kg

Return LD50 at 48 h (reported value) for this compound: O=C1NC(c2ccccc2)N(CCN2CCN(c3ccccc3)CC2)c2ccccc21 (centres unmarked)
> 1000 mg/kg

* * *

TEST NAME: in vivo
EXPERIMENTAL SETUP: mouse, read-out: acute toxicity (LD50)
REPORTED METRIC: LD50

Please give the documented LD50 of NC(=O)c1ccccc1NCCN1CCN(c2ccccc2)CC1
800 to 1000 mg/kg

* * *

TEST NAME: mouse hot plate test (Eddy and Leimbach, modified)
EXPERIMENTAL SETUP: mouse, in vivo, sc, LD50 /ED50 H.P., Mouse s.c.
REPORTED METRIC: selectivity ratio

For the compound NC(=O)c1ccccc1NCCN1CCN(c2ccccc2)CC1 [Example I] , report selectivity ratio.
> 240

* * *

Hi there, I'd appreciate the recorded LD50 for every entry that follows.
TEST NAME: in vivo
EXPERIMENTAL SETUP: po
Lab book: enter the figure in mg/kg, no units written.

Given the compound NC(=O)c1cc([N+](=O)[O-])ccc1NCCN1CCN(c2ccccc2)CC1 , write its reported LD50.
300

Given the compound CCC(=O)OC1(c2ccccc2)CCN(CCN(Cc2ccccc2)c2ccccc2C(=O)NC)CC1 , write its reported LD50.
250

Return LD50 (reported value) for this compound: CCC(=O)OC1(c2ccccc2)CCN(CCNc2ccccc2C(=O)NC)CC1
16

* * *

TEST NAME: acute toxicity, cat
EXPERIMENTAL SETUP: in vivo, po; Cat p.o.; preliminary result
Experimental: Compounds were administered in 2% clearjel as a suspension except in Toxicities have only been run with male animals to date.
REPORTED METRIC: LD50 at 48 h

Check the records and state LD50 at 48 h for O=C1NC(c2ccccc2)N(CCN2CCN(c3ccccc3)CC2)c2ccccc21 (stereo not shown)
> 1000 mg/kg

* * *

TEST NAME: phenylbenzoquinone writhing test, mouse
Format: in vivo
EXPERIMENTAL SETUP: mouse, in vivo, po, Mouse p.o.; HNSD = highest dose without gross symptoms; read-out: HNSD./ED50 Writhing
REPORTED METRIC: selectivity ratio
Write no unit; give the number alone.

Return reported selectivity ratio. Input compound: COc1ccc2c3c1O[C@H]1[C@@H](O)C=C[C@H]4[C@@H](C2)N(C)CC[C@@]341 [Codeine, reference compound]
5.9
